system-under-test: T1, human tissue factor pathway inhibitor (TFPI) (human, UniProt P10646 29-304, limits assumed)
T1 construct: bought; also called hTFPI; human TFPI
T1 sequence (looked up): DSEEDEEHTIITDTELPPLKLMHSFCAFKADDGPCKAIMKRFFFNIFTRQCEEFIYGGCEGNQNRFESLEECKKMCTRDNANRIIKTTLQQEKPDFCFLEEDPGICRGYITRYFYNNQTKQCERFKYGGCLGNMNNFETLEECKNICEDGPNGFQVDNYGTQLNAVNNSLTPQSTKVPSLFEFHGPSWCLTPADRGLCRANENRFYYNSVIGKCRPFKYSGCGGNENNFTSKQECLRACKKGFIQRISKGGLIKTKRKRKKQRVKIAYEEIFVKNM
assay-overview: SPR, TFPI immobilized
Entries and their kon
Give a bare numeral; the unit M⁻¹ s⁻¹ is implied.

Recorded kon, per entry:
INSERT INTO results (binder, reported_property, units_text, assay_value) VALUES
  ('2A8 HC_I51E (Fab, V domains shown, also called 2A8-6) VH: QVQLVESGGGLVQPGGSLRLSCAASGFTFRSYGMSWVRQAPGKGLEWVSSERGSSSSTYYADSVKGRFTISRDNSKNTLYLQMNSLRAEDTAVYYCARKYRYWFDYWGQGTLVTVSS VL: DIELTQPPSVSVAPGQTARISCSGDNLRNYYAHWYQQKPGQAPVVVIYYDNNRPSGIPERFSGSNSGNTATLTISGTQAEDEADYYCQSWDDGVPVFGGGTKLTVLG', 'kon', 'M⁻¹ s⁻¹', '1.29e+06'),
  ('2A8 HC_S31P (Fab, V domains shown, also called 2A8-2) VH: QVQLVESGGGLVQPGGSLRLSCAASGFTFRPYGMSWVRQAPGKGLEWVSSIRGSSSSTYYADSVKGRFTISRDNSKNTLYLQMNSLRAEDTAVYYCARKYRYWFDYWGQGTLVTVSS VL: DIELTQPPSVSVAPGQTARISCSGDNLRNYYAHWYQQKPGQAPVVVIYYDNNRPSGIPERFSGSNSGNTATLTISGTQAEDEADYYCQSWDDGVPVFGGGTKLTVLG', 'kon', 'M⁻¹ s⁻¹', '2.91e+06'),
  ('2A8 LC_D91L (Fab, V domains shown, also called 2A8-16) VH: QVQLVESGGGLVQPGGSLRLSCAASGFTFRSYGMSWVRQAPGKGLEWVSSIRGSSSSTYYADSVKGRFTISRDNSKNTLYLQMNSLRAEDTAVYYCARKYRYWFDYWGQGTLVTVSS VL: DIELTQPPSVSVAPGQTARISCSGDNLRNYYAHWYQQKPGQAPVVVIYYDNNRPSGIPERFSGSNSGNTATLTISGTQAEDEADYYCQSWLDGVPVFGGGTKLTVLG', 'kon', 'M⁻¹ s⁻¹', '4.41e+06'),
  ('2A8 HC_S54F (Fab, V domains shown, also called 2A8-7) VH: QVQLVESGGGLVQPGGSLRLSCAASGFTFRSYGMSWVRQAPGKGLEWVSSIRGFSSSTYYADSVKGRFTISRDNSKNTLYLQMNSLRAEDTAVYYCARKYRYWFDYWGQGTLVTVSS VL: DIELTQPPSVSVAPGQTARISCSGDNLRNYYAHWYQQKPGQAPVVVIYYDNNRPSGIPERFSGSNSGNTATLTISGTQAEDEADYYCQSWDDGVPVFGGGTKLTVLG', 'kon', 'M⁻¹ s⁻¹', '2.81e+06');

Now let's try a different one.
What does the record list as kon for 2A8 HC_S35D (Fab, V domains shown, also called 2A8-4) VH: QVQLVESGGGLVQPGGSLRLSCAASGFTFRSYGMDWVRQAPGKGLEWVSSIRGSSSSTYYADSVKGRFTISRDNSKNTLYLQMNSLRAEDTAVYYCARKYRYWFDYWGQGTLVTVSS VL: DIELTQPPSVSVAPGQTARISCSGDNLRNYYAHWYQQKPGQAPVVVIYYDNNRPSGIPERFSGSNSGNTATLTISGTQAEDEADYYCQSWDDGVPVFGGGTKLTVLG ?
4.01e+06
